B1: PBXIP1 (parent)
chain: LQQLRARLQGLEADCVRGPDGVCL

# Variants of: B1
# test_protocol: protein stability index of a GFP-peptide fusion (GPS, HEK-293T) (PSI 1-6); higher = more stable;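 further: lentivirally expressed fusions sorted by FACS into six bins by GFP to DsRed ratio, PSI derived from sequencing read proportions per bin multiplied by bin number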
# details: c terminus: a fixed tail appended
Use protein stability index to assign classes; range list: low (below 2), moderate (2 to below 3), high (3 or more)

{"columns": ["variant_string", "class_name"],
 "data": [
  ["R17I", "low"],
  ["L11M", "moderate"],
  ["D14I", "moderate"],
  ["V16C", "low"],
  ["L4N", "high"],
  ["L8W", "moderate"],
  ["R17P", "high"],
  ["Q2E", "moderate"],
  ["V16I", "moderate"]
]}
